B1: CPOX (parent)
chain: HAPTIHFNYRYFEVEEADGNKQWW

# Variants of: B1
# assayRemarks: protein stability index of a GFP-peptide fusion (GPS, HEK-293T) (PSI 1-6); higher = more stable;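 note: lentivirally expressed fusions sorted by FACS into six bins by GFP to DsRed ratio, PSI derived from sequencing read proportions per bin multiplied by bin number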
# measurementParameters: c terminus: a fixed tail appended
metricName: protein stability index

1. V14F
2.11
2. K21H
2.6
3. G19P
2.04
4. D18F
3.24
5. Y9Q
2.82
6. A2Q
3.31
7. F7H
3.35
8. Y9C
1.29
9. R10S
2.07
10. Y11R
2.36
11. D18M
1.7
